# target.of.assay: eqBuChE (BuChE, E.C.3.1.1.8, selected from horse serum) (Equus caballus)
# Construct: BuChE (E.C.3.1.1.8, selected from horse serum); purchased Sigma; host or cells: horse serum
# Sequence (P81908 whole entry): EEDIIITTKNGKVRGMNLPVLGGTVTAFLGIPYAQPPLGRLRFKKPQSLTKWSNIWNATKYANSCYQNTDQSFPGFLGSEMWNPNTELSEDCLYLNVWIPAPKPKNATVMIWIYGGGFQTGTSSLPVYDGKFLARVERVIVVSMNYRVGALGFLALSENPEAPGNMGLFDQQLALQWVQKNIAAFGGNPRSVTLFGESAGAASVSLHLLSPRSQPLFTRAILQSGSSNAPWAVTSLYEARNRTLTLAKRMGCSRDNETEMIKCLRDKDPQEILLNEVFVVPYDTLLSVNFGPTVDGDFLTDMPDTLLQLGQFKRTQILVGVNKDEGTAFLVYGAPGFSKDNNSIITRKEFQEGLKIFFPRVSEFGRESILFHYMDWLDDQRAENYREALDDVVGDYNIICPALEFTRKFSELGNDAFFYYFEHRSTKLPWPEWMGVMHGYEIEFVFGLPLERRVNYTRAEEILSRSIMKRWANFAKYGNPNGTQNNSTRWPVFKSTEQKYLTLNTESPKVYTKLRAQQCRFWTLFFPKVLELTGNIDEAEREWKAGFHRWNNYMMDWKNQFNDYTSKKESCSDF
# assay.text: Cholinesterase inhibitory activity (DTNB/BTC), eqBuChE
# Type: biochemical
# condition.description: read-out: IC50 (nM) ± SEM eqBuChE
Labelling field: enter rule met if recorded IC50 is less than 0.9 nM. Enter rule not met if it equals or exceeds that cut-off.

## Task hey, is IC50 for CCN(CC)Cc1cccc(CNC(=O)c2cccc(NC(=O)c3cccs3)c2)c1 [Compound 37] lower than 0.9 nM or not?
## Result rule not met

## Task Given CCN(CC)Cc1ccccc1CNC(=O)c1cccc(NC(=O)c2ccc(C(=O)O)cc2)c1 [Compound 13] , is recorded IC50 strictly lower than 0.9 nM?
## Result rule met

----------
# target.of.assay: hBuChE (Homo sapiens)
# assay.text: Cholinesterase inhibitory activity (DTNB/BTC), hBuChE
# Assay type: biochemical
# condition.description: mean ± SEM
// reported IC50 for each item listed
Give the number; nM is assumed, so skip it.

The following compounds have reported results that may help.
> print(dat)
                            chemical.string  observed.property  value.reported
1  CCN(CC)Cc1ccccc1CNC(=O)c1cccc(NC(=O)c2ncc[nH]2)c1               IC50            1.91
2  CCN(CC)Cc1ccccc1CNC(=O)c1cccc(NC(=O)c2ccc(C(C)C)cc2)c1               IC50            2.08
3  CCN(CC)Cc1ccccc1CNC(=O)c1cccc(NC(=O)c2cccc(F)c2)c1               IC50            25.2

Then there is this compound:
## Task Query the reported IC50 for hBuChE (Homo sapiens); item: CCN(CC)Cc1ccccc1CNC(=O)c1cccc(NC(=O)c2ccc(C#N)cc2)c1
## Result 16.5

----------
Quick reference: SR(%) cell survival rate, 50 μM of the listed items.
# System: PC-12 neural cell line
# assay.text: Toxicity test in PC-12 nerve cell (MTT)
# Format: cell-based
# condition.description: PC-12 cells, 50 μM compound for 24 h
Kindly answer with a numeric value in %, unit omitted.

Known SR(%) cell survival rate, 50 μM results, listed for orientation:
> print(dat)
                                   compound  unit  value.reported
1  CCN(CC)Cc1ccccc1CNC(=O)c1cccc(NC(=O)c2ccc(I)cc2)c1 [Compound 21]     %           89.63
2  CCN(CC)Cc1ccccc1CNC(=O)c1cccc(NC(=O)c2ccc(C=O)cc2)c1 [Compound 14]     %           81.34
3  CN(C)Cc1ccccc1CNC(=O)c1cccc(NC(=O)c2cccs2)c1 [Compound 34]     %            94.5
4  CCCN(CCC)Cc1ccccc1NC(=O)c1cccc(NC(=O)c2cccs2)c1 [Compound 4]     %           79.48
5  CCN(CC)Cc1ccccc1CNC(=O)c1cccc(NC(=O)c2ccc(Cl)cc2)c1 [Compound 19]     %           79.24
6  CCN(CC)Cc1ccccc1CNC(=O)c1cccc(NC(=O)c2ccc(F)c(F)c2)c1 [Compound 16]     %           89.53
7  CCN(CC)Cc1ccccc1CNC(=O)c1cccc(NC(=O)c2ccc(C#N)cc2)c1 [Compound 31]     %           91.59
8  CCN(CC)Cc1ccccc1CNC(=O)c1cccc(NC(=O)c2ccc(O)cc2)c1 [Compound 12]     %           89.64

## Task Recorded SR(%) cell survival rate, 50 μM of CCN(CC)Cc1ccccc1CNC(=O)c1cccc(NC(=O)c2ccccn2)c1 [Compound 7] , please.
## Result 75.46

## Task Value lookup for SR(%) cell survival rate, 50 μM; key = CCN(CC)Cc1ccccc1CNC(=O)c1cccc(NC(=O)c2nccs2)c1 [Compound 8]
## Result 89.42

## Task Fill in: SR(%) cell survival rate, 50 μM of CCN(CC)Cc1ccccc1CNC(=O)c1cccc(NC(=O)c2ccc(N)cc2)c1 [Compound 33] is ___
## Result 74.62

## Task So what does the record say about SR(%) cell survival rate, 50 μM for CCN(CC)Cc1ccc(CNC(=O)c2cccc(NC(=O)c3cccs3)c2)cc1 [Compound 38] ?
## Result 84.23

## Task Recorded SR(%) cell survival rate, 50 μM of CCN(CC)Cc1ccccc1CNC(=O)c1cccc(NC(=O)c2ccccc2F)c1 [Compound 18] , please.
## Result 73.56
